- condition.details: 343.15 K; 101 kPa; Liquid; Concentric cylinders viscometry
value.kind: log10(viscosity) (log10 of the value in mPa·s)
Give log10 of viscosity, with viscosity taken in mPa·s.

O=S1(=O)CCCC1 = 0.64

Go through the list and state log10(viscosity) for each entry.
1. CC(C)O
2. OCCOCCOCCO
3. CCC(C)O (stereo not given)
4. OCCOCCO

OUTPUT:
[-0.19, 0.85, -0.11, 0.76]

* * *

- condition.details: 303.15 K; 101 kPa; Liquid; Vibrating tube method
Param label: returns YES when mass density < 1000 kg/m3, returns NO otherwise, including exact equality.

Worked set:
CCC(C)O (stereo not given) = YES
O=S1(=O)CCCC1 = NO
OCCOCCOCCO = NO

INPUT: Hello, I'm reviewing records and need to know if mass density of OCCOCCO is below 1000 kg/m3. Could you check?
OUTPUT: NO

INPUT: Also CC(C)O , if possible.
OUTPUT: YES
